Catalogue of MIC readings, one per entry.
Tested on: Staphylococcus aureus
procedureDetails: Antibacterial activity against methicillin and linezolid resistant Staphylococcus aureus NRS 119 clinical isolate after 18 to 24 hrs by microdilution assay
Type: functional

{"smilesData": "O=C(NNC(=S)Nc1cccnc1)c1ccccc1O", "MIC": "> 100 µM"}
{"smilesData": "O=C(NNC(=S)Nc1ccc(Cl)c(Cl)c1)c1ccccc1O", "MIC": "50 µM"}
{"smilesData": "O=C(NNC(=S)Nc1cccc(F)c1)c1ccccc1O", "MIC": "> 100 µM"}
{"smilesData": "CN[C@H](CC(C)C)C(=O)N[C@H]1C(=O)N[C@@H](CC(N)=O)C(=O)N[C@H]2C(=O)N[C@H]3C(=O)N[C@H](C(=O)N[C@H](C(=O)O)c4cc(O)cc(O)c4-c4cc3ccc4O)[C@H](O)c3ccc(c(Cl)c3)Oc3cc2cc(c3O[C@@H]2O[C@H](CO)[C@@H](O)[C@H](O)[C@H]2O[C@H]2C[C@](C)(N)[C@H](O)[C@H](C)O2)Oc2ccc(cc2Cl)[C@H]1O", "MIC": "0.7 µM"}

Entry O=C(NNC(=S)Nc1ccccc1F)c1ccccc1O : MIC on Staphylococcus aureus = > 100 µM

Considering O=C(NNC(=S)Nc1ccc(F)cc1)c1ccccc1O , its MIC with Staphylococcus aureus was recorded as > 100 µM
